Cited source: the RNAGym collection of RNA variant scans (doi:10.1093/nar/gkz1192)

B1: CPEB3 Ribozyme (parent)
chain: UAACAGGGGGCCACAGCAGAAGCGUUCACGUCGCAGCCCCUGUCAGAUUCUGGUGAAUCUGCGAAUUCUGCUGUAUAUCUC

Variants of: B1
test.description: self-cleavage, relative activity (ratio to wild type); higher = more cleavage; in vitro, sequencing
Assignment: determine reported self-cleavage for the given variants.
Answers are plain numbers.

Here's what some known entries look like.
U72A U78A : 0.72
G7A A35U : 0.19
U1A G36C : 0.09

Parameters: items (list). Returns: self-cleavage for each item.
1. G19U C50U
2. U31A G52C
3. G9U G19U
4. A21G U72G
5. G9A U69C

a:
1. 0.38
2. 0.5
3. 0.07
4. 0.53
5. 0.1
